Item-by-item account of pEC50
system.under.test: T1, His-cynomolgus monkey LIGHT (cynomolgus monkey)
T1 construct: also called His-cynoLIGHT
T1 chain: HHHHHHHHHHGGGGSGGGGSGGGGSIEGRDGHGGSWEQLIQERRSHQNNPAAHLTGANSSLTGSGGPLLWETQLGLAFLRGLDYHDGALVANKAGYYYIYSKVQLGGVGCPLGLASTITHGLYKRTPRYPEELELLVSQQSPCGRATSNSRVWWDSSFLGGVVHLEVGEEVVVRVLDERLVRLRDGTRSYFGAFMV
protocol.notes: ELISA, His-cynoLIGHT coated
Value format note: pEC50 is -log10 of concentration (mol/L); just state the number.

Before answering, review these 3 worked examples.
hum_LT-m37-3 (antibody, human IgG4, V domains shown, humanized from LT-m37) VH: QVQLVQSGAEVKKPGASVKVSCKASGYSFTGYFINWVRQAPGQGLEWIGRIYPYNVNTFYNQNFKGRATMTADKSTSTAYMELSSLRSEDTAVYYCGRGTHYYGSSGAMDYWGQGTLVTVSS VL: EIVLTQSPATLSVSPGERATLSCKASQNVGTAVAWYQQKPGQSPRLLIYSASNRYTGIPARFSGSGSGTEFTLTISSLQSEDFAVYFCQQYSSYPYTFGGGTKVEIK = 10.26
hum_LT-m37-1 (antibody, human IgG4, V domains shown, humanized from LT-m37) VH: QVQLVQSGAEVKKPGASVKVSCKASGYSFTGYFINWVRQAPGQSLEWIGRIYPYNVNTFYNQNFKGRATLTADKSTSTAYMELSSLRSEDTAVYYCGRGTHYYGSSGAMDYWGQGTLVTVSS VL: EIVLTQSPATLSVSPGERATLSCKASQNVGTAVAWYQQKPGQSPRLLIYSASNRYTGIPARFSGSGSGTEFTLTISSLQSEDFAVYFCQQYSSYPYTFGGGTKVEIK = 10.33
hum_LT-m37-7 (antibody, human IgG4, V domains shown, humanized from LT-m37) VH: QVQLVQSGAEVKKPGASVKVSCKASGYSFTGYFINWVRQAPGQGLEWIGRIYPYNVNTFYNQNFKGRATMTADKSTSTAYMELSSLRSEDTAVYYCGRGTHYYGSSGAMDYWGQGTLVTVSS VL: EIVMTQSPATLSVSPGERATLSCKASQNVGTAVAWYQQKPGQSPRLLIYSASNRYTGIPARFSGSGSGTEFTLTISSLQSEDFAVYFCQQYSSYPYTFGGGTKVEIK = 10.32

Now look at this one.
Any idea what its pEC50 is? The binder is hum_LT-m37-4 (antibody, human IgG4, V domains shown, humanized from LT-m37) VH: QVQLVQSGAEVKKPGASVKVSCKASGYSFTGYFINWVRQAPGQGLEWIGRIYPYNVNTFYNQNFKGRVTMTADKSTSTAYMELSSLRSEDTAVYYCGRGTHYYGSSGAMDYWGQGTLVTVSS VL: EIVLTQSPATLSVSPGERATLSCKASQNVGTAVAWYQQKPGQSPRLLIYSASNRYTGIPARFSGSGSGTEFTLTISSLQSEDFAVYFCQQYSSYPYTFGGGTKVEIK
10.28
